Data origin: paper PMC12416549

- target.entity: T1, TNFR1 (Homo sapiens, UniProt P19438)
- T1 chain: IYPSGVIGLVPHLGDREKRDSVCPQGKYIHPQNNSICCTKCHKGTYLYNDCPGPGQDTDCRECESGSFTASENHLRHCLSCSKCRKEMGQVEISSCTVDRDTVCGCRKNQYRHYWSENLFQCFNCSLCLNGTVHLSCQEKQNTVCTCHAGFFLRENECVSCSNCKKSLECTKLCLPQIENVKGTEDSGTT
- assay.protocol: yeast display SC50
reported.property: apparent Kd (screen) (nM)

K85E (designed binder) SMEEEVEKAAKEYEKKKKEAIEKHLEKLKAKDKEAAERFLKELEEAAKEYAKDEAKTMSEEEAKRRAKKYKEKVLLSELSEEEQEEIKEAEEKLVRTILKYVEEAAK :: 0.446
K64T (designed binder) SMEEEVEKAAKEYEKKKKEAIEKHLEKLKAKDKEAAERFLKELEEAAKEYAKDEAKTMSEEEATRRAKKYKEKVLLSELSEEEQKEIKEAEEKLVRTILKYVEEAAK :: 1.4
K16D (designed binder) SMEEEVEKAAKEYEKDKKEAIEKHLEKLKAKDKEAAERFLKELEEAAKEYAKDEAKTMSEEEAKRRAKKYKEKVLLSELSEEEQKEIKEAEEKLVRTILKYVEEAAK :: 0.539
E3L (designed binder) SMLEEVEKAAKEYEKKKKEAIEKHLEKLKAKDKEAAERFLKELEEAAKEYAKDEAKTMSEEEAKRRAKKYKEKVLLSELSEEEQKEIKEAEEKLVRTILKYVEEAAK :: 12.5
E83P (designed binder) SMEEEVEKAAKEYEKKKKEAIEKHLEKLKAKDKEAAERFLKELEEAAKEYAKDEAKTMSEEEAKRRAKKYKEKVLLSELSEEPQKEIKEAEEKLVRTILKYVEEAAK :: 3.3

P = E26G (designed binder) SMEEEVEKAAKEYEKKKKEAIEKHLGKLKAKDKEAAERFLKELEEAAKEYAKDEAKTMSEEEAKRRAKKYKEKVLLSELSEEEQKEIKEAEEKLVRTILKYVEEAAK
Q = K107G (designed binder) SMEEEVEKAAKEYEKKKKEAIEKHLEKLKAKDKEAAERFLKELEEAAKEYAKDEAKTMSEEEAKRRAKKYKEKVLLSELSEEEQKEIKEAEEKLVRTILKYVEEAAG
Returns the identifier with the smallest measured apparent Kd (screen) among P and Q . Kindly state the label of the option you pick.
P
(P: 0.593 nM, Q: 1.05 nM)

I = K18W (designed binder) SMEEEVEKAAKEYEKKKWEAIEKHLEKLKAKDKEAAERFLKELEEAAKEYAKDEAKTMSEEEAKRRAKKYKEKVLLSELSEEEQKEIKEAEEKLVRTILKYVEEAAK
II = A51N (designed binder) SMEEEVEKAAKEYEKKKKEAIEKHLEKLKAKDKEAAERFLKELEEAAKEYNKDEAKTMSEEEAKRRAKKYKEKVLLSELSEEEQKEIKEAEEKLVRTILKYVEEAAK
III = Y50R (designed binder) SMEEEVEKAAKEYEKKKKEAIEKHLEKLKAKDKEAAERFLKELEEAAKERAKDEAKTMSEEEAKRRAKKYKEKVLLSELSEEEQKEIKEAEEKLVRTILKYVEEAAK
IV = K15H (designed binder) SMEEEVEKAAKEYEHKKKEAIEKHLEKLKAKDKEAAERFLKELEEAAKEYAKDEAKTMSEEEAKRRAKKYKEKVLLSELSEEEQKEIKEAEEKLVRTILKYVEEAAK
Given 4 binders, produce a descending ranking by apparent Kd (screen). Please list the labels according to the requested order.
II, III, I, IV

1 = E12Y (designed binder) SMEEEVEKAAKYYEKKKKEAIEKHLEKLKAKDKEAAERFLKELEEAAKEYAKDEAKTMSEEEAKRRAKKYKEKVLLSELSEEEQKEIKEAEEKLVRTILKYVEEAAK
2 = Y50E (designed binder) SMEEEVEKAAKEYEKKKKEAIEKHLEKLKAKDKEAAERFLKELEEAAKEEAKDEAKTMSEEEAKRRAKKYKEKVLLSELSEEEQKEIKEAEEKLVRTILKYVEEAAK
Could you kindly indicate whether 1 or 2 has the higher apparent Kd (screen) value? Answer = label.
2

A = R65S (designed binder) SMEEEVEKAAKEYEKKKKEAIEKHLEKLKAKDKEAAERFLKELEEAAKEYAKDEAKTMSEEEAKSRAKKYKEKVLLSELSEEEQKEIKEAEEKLVRTILKYVEEAAK
B = K85T (designed binder) SMEEEVEKAAKEYEKKKKEAIEKHLEKLKAKDKEAAERFLKELEEAAKEYAKDEAKTMSEEEAKRRAKKYKEKVLLSELSEEEQTEIKEAEEKLVRTILKYVEEAAK
Out of A and B , name the one with the higher apparent Kd (screen). // caller expects the label of the chosen entry
A
